# Target or test system: 5HT1A receptors (Rattus norvegicus, UniProt P19327)
# Construct: Rat hippocampi were homogenized; from tissue; host or cells: rat hippocampus membranes
# Sequence (P19327 whole entry): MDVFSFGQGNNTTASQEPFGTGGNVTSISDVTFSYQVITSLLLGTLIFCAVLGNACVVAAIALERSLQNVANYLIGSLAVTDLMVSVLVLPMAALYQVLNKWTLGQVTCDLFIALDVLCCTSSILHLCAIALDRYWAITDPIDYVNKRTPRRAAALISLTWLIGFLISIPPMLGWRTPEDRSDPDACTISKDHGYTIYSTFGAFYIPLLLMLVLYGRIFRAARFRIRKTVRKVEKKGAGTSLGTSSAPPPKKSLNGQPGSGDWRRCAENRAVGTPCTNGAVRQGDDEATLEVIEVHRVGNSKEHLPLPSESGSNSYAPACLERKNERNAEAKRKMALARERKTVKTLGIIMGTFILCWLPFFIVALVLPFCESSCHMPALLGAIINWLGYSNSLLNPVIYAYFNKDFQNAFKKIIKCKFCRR
# Method notes: [3H]8-OH-DPAT binding (5HT1A receptors), rat hippocampus membranes
# Condition info: rat hippocampus crude membranes, [3H]8-OH-DPAT 1.0 nM, 25°C 30 min; read-out: Receptor Binding IC50 (nM) 5-HT1a
Parameter measured: IC50 (nM)

| Molecule | Parameter measured | Relation qualifier | Measured result |
| --- | --- | --- | --- |
| COc1ccccc1N1CCN(CCCN(C(C)=O)c2cccc3c(=O)c(C)c(-c4ccccc4)oc23)CC1.Cl.O [Example 36, hydrochloride hydrate] | IC50 | = | 54 |
| COc1ccccc1N1CCN(CCC(O)c2cccc3c(=O)c(C)c(-c4ccccc4)oc23)CC1.Cl (centres unmarked) [Example 20, hydrochloride] | IC50 | = | 85 |
| Cc1c(-c2ccccc2)oc2c(C(=O)NCCCN3CCC(n4c(=O)[nH]c5ccccc54)CC3)cccc2c1=O [Example 57] | IC50 | > | 1000 |
| COc1ccccc1N1CCN(CCCNC(=O)c2cccc3c(=O)c(C)c(-c4ccc(C(F)(F)F)cc4)oc23)CC1 [Example 99, methanesulphonate sesquihydrate] | IC50 | = | 5 |
| CS(=O)(=O)O.Cc1c(-c2ccccc2)oc2c(C(=O)NCCCN3CCN(c4ncccn4)CC3)cccc2c1=O [Example 58, methanesulphonate] | IC50 | = | 126 |

###

Measured LD50 at 168 h of individual entries
# Method notes: Acute toxicity in mice after intraperitoneal and oral administration
# Condition info: mouse, in vivo, ip; female albino Swiss mice, intraperitoneal, mortality recorded 7 days after administration; read-out: Acute Toxicity in Mice LD50 (mg/kg) i.p.
Parameter measured: LD50 at 168 h (mg/kg)

| Compound | Parameter measured | Relation qualifier | Measured result |
| --- | --- | --- | --- |
| COc1ccccc1N1CCN(CCNC(=O)Nc2cccc3c(=O)c(C)c(-c4ccccc4)oc23)CC1.CS(=O)(=O)O [Example 38] | LD50 at 168 h | > | 500 |
| COc1ccccc1N1CCN(CCCC[S+]([O-])c2cccc3c(=O)c(C)c(-c4ccccc4)oc23)CC1.CS(=O)(=O)O (stereo not shown) [Example 73] | LD50 at 168 h | = | 202 |
| CS(=O)(=O)O.Cc1c(-c2ccccc2)oc2c(C(=O)NCCCN3CCC(c4ccccc4)CC3)cccc2c1=O [Example 54] | LD50 at 168 h | = | 106 |
| COc1ccccc1OCCN(C)CCCNC(=O)c1cccc2c(=O)c(C)c(-c3ccccc3)oc12.Cl [Example 62] | LD50 at 168 h | = | 128 |
| CCOC(CN1CCN(c2ccccc2OC)CC1)c1cccc2c(=O)c(C)c(-c3ccccc3)oc12.Cl (stereo not shown) [Example 22] | LD50 at 168 h | > | 500 |
| COc1ccccc1N1CCN(CCCN(C(C)=O)c2cccc3c(=O)c(C)c(-c4ccccc4)oc23)CC1.Cl.O [Example 36] | LD50 at 168 h | > | 500 |
| COc1ccccc1N1CCN(CCCOc2cccc3c(=O)c(C)c(-c4ccccc4)oc23)CC1.Cl.Cl [Example 40] | LD50 at 168 h | = | 140 |
